Kindly state Activity for each of the entries shown.
- experiment.summary: Antioxidant activity in BAEC assessed as protection against air-oxidized LDL-induced cell death at 10 uM pretreated for 24 hrs before air-oxidized LDL challenge measured after 16 hrs by lactate dehydrogenase release assay (reference value: 22.76 +/- 1.53 %)
- Type: functional, Bos taurus
Answers are plain numbers, in %.

CCCN1CCc2c([nH]c3ccc(OCc4ccccc4)cc23)C1c1cccc(OC)c1 (stereo unspecified) = 13.22
CCc1ccc2[nH]c3c(c2c1)CCNC3c1cccc(O)c1 (stereo unspecified) = 13.31
CCCN1CCc2c([nH]c3ccc(CC)cc23)C1c1cccc(OC)c1 (stereo unspecified) = 15.32
CCCN1CCc2c([nH]c3ccc(CC)cc23)C1c1cccc(O)c1 (stereo unspecified) = 13.2
CCCN1CCc2c([nH]c3ccc(CC)cc23)C1c1cccc(OCc2ccccc2)c1 (stereo unspecified) = 13.42

Please report Activity for every entry that follows.
1. CCCN1CCc2c([nH]c3ccc(CC)cc23)C1c1ccc(O)c(O)c1 (stereo unspecified)
2. CCCN1CCc2c([nH]c3ccc(O)cc23)C1c1cccc(OC)c1 (stereo unspecified)
3. CCc1ccc2[nH]c3c(c2c1)CCNC3c1ccc(O)c(O)c1 (stereo unspecified)
4. CCc1ccc2[nH]c3c(c2c1)CCNC3c1cc(C(C)(C)C)c(O)c(C(C)(C)C)c1 (stereo unspecified)
5. CCCN1CCc2c([nH]c3ccc(CC)cc23)C1c1cc(C(C)(C)C)c(O)c(C(C)(C)C)c1 (stereo unspecified)
6. CCc1ccc2[nH]c3c(c2c1)CCNC3c1cccc(OCc2ccccc2)c1 (stereo unspecified)

Reply text:
[13.19, 14.02, 13.3, 13.26, 13.21, 13.29]

Data provenance is ChEMBL document CHEMBL1781937.
